target_of_assay: human Siglec-7 on primary human monocyte-derived dendritic cells (human, UniProt Q9Y286 19-467)
Sequence (Q9Y286 19-467): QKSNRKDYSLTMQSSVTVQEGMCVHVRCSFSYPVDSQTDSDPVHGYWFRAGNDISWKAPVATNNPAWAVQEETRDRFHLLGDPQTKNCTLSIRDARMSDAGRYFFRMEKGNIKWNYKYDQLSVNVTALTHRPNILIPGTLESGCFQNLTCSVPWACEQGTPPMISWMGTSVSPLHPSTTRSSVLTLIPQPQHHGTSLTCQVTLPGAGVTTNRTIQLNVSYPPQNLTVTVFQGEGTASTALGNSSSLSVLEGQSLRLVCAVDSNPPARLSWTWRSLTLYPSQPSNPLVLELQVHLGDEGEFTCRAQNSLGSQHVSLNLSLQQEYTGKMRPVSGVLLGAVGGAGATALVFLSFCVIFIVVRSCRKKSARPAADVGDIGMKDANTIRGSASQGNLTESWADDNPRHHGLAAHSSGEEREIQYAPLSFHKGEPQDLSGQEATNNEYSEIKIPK
protocol_text: cell-based or functional assay
measured_property: Maximal downregulation (% Siglec-7 remaining) (%)
Numbers only, in %.

(Q) Would you mind telling me what Maximal downregulation (% Siglec-7 remaining) value was observed for S7AB-H8.27 (antibody, V domains shown) VH: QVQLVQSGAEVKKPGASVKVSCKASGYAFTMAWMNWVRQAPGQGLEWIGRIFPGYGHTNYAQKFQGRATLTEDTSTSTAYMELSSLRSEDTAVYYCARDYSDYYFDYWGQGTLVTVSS VL: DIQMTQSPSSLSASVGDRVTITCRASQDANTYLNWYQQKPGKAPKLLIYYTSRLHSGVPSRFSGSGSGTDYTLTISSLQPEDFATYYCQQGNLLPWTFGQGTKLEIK ?
(A) 2.9

Let us move to another entry and its Maximal downregulation (% Siglec-7 remaining).
(Q) Reported Maximal downregulation (% Siglec-7 remaining) for S7AB-H8.20 (antibody, V domains shown) VH: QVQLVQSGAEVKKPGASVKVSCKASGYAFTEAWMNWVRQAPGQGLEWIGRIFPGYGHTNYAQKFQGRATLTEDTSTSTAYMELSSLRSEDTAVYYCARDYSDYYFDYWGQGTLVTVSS VL: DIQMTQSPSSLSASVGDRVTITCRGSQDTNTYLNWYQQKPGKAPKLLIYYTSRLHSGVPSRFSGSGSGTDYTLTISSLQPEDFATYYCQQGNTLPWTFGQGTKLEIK : what is it?
(A) 10.6

The measured values listed here are drawn from patent US20210246204A1.
